Target: Recombinant human cathepsin A (Homo sapiens)
Construct: Recombinant human cathepsin A (residues 29-480, with a C-terminal 10-His tag); 10-His (C); purchased R&D Systems 1049-SE
Sequence (P10619 29-312 limits assumed): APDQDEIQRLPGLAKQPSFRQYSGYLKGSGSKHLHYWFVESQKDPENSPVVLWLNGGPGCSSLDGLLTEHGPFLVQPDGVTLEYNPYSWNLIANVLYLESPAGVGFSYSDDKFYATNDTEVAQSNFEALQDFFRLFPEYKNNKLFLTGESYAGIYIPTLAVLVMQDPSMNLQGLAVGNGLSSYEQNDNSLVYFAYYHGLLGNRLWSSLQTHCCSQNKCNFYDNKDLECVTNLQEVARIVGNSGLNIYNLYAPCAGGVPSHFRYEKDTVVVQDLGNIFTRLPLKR
Sequence (P10619 327-480 limits assumed): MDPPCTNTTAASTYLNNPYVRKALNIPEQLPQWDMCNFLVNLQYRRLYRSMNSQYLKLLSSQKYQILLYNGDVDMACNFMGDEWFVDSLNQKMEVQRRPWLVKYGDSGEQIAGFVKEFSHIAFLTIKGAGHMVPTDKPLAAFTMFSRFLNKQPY
Experiment: Cathepsin A inhibitory activity
Format: biochemical
Settings: recombinant human cathepsin A 833 ng/ml, Bodipy FL-labeled bradykinin 2 μM, pH 5.5; read-out: CATH-A IC50
pIC50: −log10 of the molar value.
Label Y when pIC50 is at or above 6; otherwise label N.

Worked set:
{"columns": ["molecule", "assigned label"],
 "data": [
  ["Cc1ccc(C(CC(=O)O)NC(=O)c2cc(O)n(-c3ccccc3)n2)c(F)c1 (stereo not drawn)", "Y"],
  ["COc1cccc(F)c1C(CC(=O)O)NC(=O)c1cc(O)n(-c2ccccc2Cl)n1 (stereo not drawn)", "Y"],
  ["COc1ccc(C(F)(F)F)cc1C(CC(=O)O)NC(=O)c1cc(O)n(-c2ccccc2Cl)n1 (stereo not drawn)", "N"],
  ["O=C(O)CC(NC(=O)c1cc(O)n(-c2ccccc2)n1)c1ccc(N2CCCC2)cc1 (stereo not drawn)", "N"],
  ["COc1ccc(C(CC(=O)O)NC(=O)c2cc(O)n(-c3ccccc3F)n2)c(C(F)(F)F)c1 (stereo not drawn)", "Y"]
]}

Assess whether reported pIC50 for Cc1c(F)cccc1C(CC(=O)O)NC(=O)c1cc(O)n(-c2ccc(Cl)cc2)n1 (stereo not drawn) sits at 6 or higher.
Y

---

Each entry below carries its recorded IC50.
target: Recombinant human cathepsin A (Homo sapiens, UniProt P10619); construct: Recombinant human cathepsin A (residues 29-480, with a C-terminal 10-His tag); 10-His (C); purchased R&D Systems 1049-SE; assay: Cathepsin A inhibitory activity; format: biochemical; conditions: read-out: Activity (2): Cathepsin A inhibitory activity, IC50 class

Please review the entries below; each comes with its answer.
{"columns": ["compound", "parameter", "reported measurement"],
 "data": [
  ["COc1ccc([C@H](CC(=O)O)NC(=O)c2cc(O)n(-c3ccc(Cl)cc3)n2)cn1 [Example 299]", "IC50", "1000 to 30000 nM"],
  ["O=C(O)C[C@H](NC(=O)c1cc(O)n(-c2cccc(F)c2)n1)c1cccnc1 [Example 334]", "IC50", "100 to 1000 nM"],
  ["CC(C)C(C)(O)COc1cc(C(=O)N[C@@H](CC(=O)O)c2c(F)cccc2F)nn1-c1ccccc1F (some centres unmarked) [Example 808]", "IC50", "< 100 nM"],
  ["O=C(O)CC(NC(=O)c1cc(O)n(-c2ccc(F)cc2)n1)c1ccc(-c2ccc(F)cc2)cc1 (centres unmarked) [Example 371]", "IC50", "100 to 1000 nM"],
  ["Cc1ccc(C)c(-n2nc(C(=O)NC(CC(=O)O)c3cc(F)cc(F)c3)cc2O)c1 (centres unmarked) [Example 56]", "IC50", "1000 to 30000 nM"]
]}

// query IC50 value for entry CC(C)[C@](C)(O)COc1cc(C(=O)N[C@@H](CC(=O)O)c2ccc(F)cc2)nn1-c1ccccc1F [Example 872]
100 to 1000 nM

And N#Cc1ccc([C@H](CC(=O)O)NC(=O)c2cc(O)n(-c3ccccc3)n2)cc1 [Example 101] ?
100 to 1000 nM

And CC(C)C(C)(O)COc1cc(C(=O)N[C@H](CC(=O)O)Cc2ccc(C#N)cc2)nn1-c1ccccc1F (some centres unmarked) [Example 836] ?
1000 to 30000 nM

---

Target: Recombinant human cathepsin A (Homo sapiens, UniProt P10619)
Construct: Recombinant human cathepsin A (residues 29-480, with a C-terminal 10-His tag); 10-His (C); purchased R&D Systems 1049-SE
Sequence (P10619 29-312 limits assumed): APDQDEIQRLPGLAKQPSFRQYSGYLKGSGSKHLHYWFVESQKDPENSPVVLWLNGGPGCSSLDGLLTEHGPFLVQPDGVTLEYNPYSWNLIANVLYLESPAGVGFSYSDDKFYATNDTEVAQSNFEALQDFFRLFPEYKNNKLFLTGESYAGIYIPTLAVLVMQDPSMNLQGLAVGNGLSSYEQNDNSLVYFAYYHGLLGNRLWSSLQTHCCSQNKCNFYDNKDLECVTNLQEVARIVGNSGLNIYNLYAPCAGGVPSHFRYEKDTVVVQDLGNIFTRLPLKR
Sequence (P10619 327-480 limits assumed): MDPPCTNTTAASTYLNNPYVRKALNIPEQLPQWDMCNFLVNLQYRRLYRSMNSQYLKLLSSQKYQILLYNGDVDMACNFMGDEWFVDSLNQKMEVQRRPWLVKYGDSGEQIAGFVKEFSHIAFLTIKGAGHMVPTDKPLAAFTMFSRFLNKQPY
Test: Cathepsin A inhibitory activity
Assay type: biochemical
Conditions: recombinant human cathepsin A; read-out: Activity (2): Cathepsin A inhibitory activity, IC50 class
parameter: IC50

{"columns": ["compound", "reported measurement"],
 "data": [
  ["Cc1ccc([C@H](CC(=O)O)NC(=O)c2cc(O)n(-c3ccccc3F)n2)cc1", "100 to 1000 nM"],
  ["COc1cc(C(=O)N[C@@H](CC(=O)Nc2cc(C)on2)c2ccccc2C)nn1-c1ccccc1F", "100 to 1000 nM"],
  ["COc1cc(C(=O)N[C@@H](CC(=O)N[C@H](CO)C(C)C)c2ccccc2C)nn1-c1ccccc1F", "< 100 nM"]
]}

// query IC50 value for entry O=C(O)CC(NC(=O)c1cc(O)n(-c2ccccc2F)n1)c1cc(F)ccc1Cl (centres unmarked)
100 to 1000 nM

And O=C(O)CC(NC(=O)c1cc(O)n(-c2cccc(Cl)c2)n1)c1cc(Cl)ccc1Cl (centres unmarked) ?
100 to 1000 nM

And "COc1cc(C(=O)N[C@@H](CC(=O)NC[C@@H]2CCCO2)c2ccccc2C)nn1-c1ccccc1F" ?
< 100 nM

And "COc1cc(C(=O)N[C@@H](CC(=O)NC(C)(C)C)c2ccccc2C)nn1-c1ccccc1F" ?
1000 to 30000 nM

And "COc1ccc([C@H](CC(=O)O)NC(=O)c2cc(O)n(-c3ccc(F)cc3)n2)cn1" ?
100 to 1000 nM

---

target: Recombinant human cathepsin A (Homo sapiens, UniProt P10619); construct: Recombinant human cathepsin A (residues 29-480, with a C-terminal 10-His tag); 10-His (C); purchased R&D Systems 1049-SE; test: Cathepsin A inhibitory activity; type: biochemical; conditions: read-out: Activity (2): Cathepsin A inhibitory activity, IC50 class
pIC50: −log10 of the molar value.
Each entry below carries its recorded pIC50.

Please review the entries below; each comes with its answer.
{"columns": ["compound", "parameter", "reported measurement"],
 "data": [
  ["CC(C)C(C)(O)COc1cc(C(=O)N[C@H](CC(=O)O)Cc2ccccc2)nn1-c1ccccc1F (stereo partly shown)", "pIC50", "4.52 to 6.00"],
  ["O=C(O)CC(NC(=O)c1cc(O)n(-c2ccccc2)n1)c1ccc(Oc2ccccc2)cc1 (stereo not shown)", "pIC50", "6.00 to 7.00"],
  ["Cc1ccccc1C(CC(=O)O)NC(=O)c1cc(O)n(-c2ccc(F)c(Cl)c2)n1 (stereo not shown)", "pIC50", "6.00 to 7.00"],
  ["Cc1ccc(C)c(-n2nc(C(=O)NC(CC(=O)O)c3ccc(F)c(F)c3)cc2O)c1 (stereo not shown)", "pIC50", "4.52 to 6.00"],
  ["CCc1ccc(C(CC(=O)O)NC(=O)c2cc(O)n(-c3ccccc3)n2)cc1 (stereo not shown)", "pIC50", "6.00 to 7.00"]
]}

// query pIC50 value for entry O=C(O)CC(NC(=O)c1cc(O)n(-c2ccccc2)n1)C1CC1 (stereo not shown)
4.52 to 6.00

And O=C(O)CC(NC(=O)c1cc(O)n(-c2ccccc2)n1)c1ccc(-n2ccnc2)cc1 (stereo not shown) ?
4.52 to 6.00

And "CC(C)(C)[C@H](O)COc1cc(C(=O)N[C@@H](CC(=O)O)c2cccc(Cl)c2Cl)nn1-c1ccccc1F" ?
> 7.00

And O=C(O)CC(NC(=O)c1cc(O)n(-c2ccccc2Cl)n1)c1ccc(Oc2ccccc2)cc1 (stereo not shown) ?
6.00 to 7.00

And "CC(C)[C@](C)(O)COc1cc(C(=O)NC2(CC(=O)O)CCCC2)nn1-c1ccccc1F" ?
6.00 to 7.00

And COc1ccc(C(CC(=O)O)NC(=O)c2cc(O)n(-c3cc(C)ccc3C)n2)cc1 (stereo not shown) ?
4.52 to 6.00

And O=C(O)CC(NC(=O)c1cc(O)n(-c2ccc(F)cc2)n1)c1ccccc1F (stereo not shown) ?
4.52 to 6.00

And "O=C(O)C[C@H](NC(=O)c1cc(O)n(-c2ccccc2Cl)n1)c1ccc(C(F)(F)F)cc1" ?
6.00 to 7.00
